# system: CYP2E1 (Homo sapiens, UniProt P05181)
# Sequence (P05181 whole entry): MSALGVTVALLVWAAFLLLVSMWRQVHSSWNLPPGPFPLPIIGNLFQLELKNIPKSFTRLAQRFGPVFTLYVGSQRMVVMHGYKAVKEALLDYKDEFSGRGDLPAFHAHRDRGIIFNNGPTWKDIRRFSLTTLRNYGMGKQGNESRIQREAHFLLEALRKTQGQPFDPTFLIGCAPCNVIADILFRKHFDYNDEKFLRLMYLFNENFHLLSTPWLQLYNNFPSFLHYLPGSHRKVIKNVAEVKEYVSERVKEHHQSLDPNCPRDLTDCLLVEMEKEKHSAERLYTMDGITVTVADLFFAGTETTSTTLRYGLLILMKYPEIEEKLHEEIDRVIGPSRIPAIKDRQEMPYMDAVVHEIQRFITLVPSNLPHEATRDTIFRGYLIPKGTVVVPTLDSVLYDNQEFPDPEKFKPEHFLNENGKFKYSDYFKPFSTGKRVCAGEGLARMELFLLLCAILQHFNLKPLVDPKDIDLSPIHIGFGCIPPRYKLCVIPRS

{"molecular_string": "COc1c(O)cc2c(c1O)[C@@H]1O[C@H](CO)[C@@H](O)[C@H](O)[C@H]1OC2=O", "value_unit": "µM", "Ki": 11.4}

* * *

# system: CYP3A4 (Homo sapiens, UniProt P08684)
# Sequence (P08684 whole entry): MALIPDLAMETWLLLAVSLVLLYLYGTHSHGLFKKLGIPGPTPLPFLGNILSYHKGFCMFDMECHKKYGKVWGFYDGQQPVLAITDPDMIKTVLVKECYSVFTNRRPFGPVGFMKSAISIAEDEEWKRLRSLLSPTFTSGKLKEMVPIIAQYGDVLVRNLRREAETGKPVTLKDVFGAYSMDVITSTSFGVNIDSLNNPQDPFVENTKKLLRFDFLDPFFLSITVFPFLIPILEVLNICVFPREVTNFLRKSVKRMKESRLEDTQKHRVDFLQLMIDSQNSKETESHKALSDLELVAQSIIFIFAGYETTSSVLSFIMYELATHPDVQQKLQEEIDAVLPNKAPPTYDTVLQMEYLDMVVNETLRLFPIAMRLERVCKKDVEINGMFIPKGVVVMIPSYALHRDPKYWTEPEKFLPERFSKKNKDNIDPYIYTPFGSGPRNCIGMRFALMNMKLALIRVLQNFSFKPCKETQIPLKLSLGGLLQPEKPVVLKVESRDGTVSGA
# protocol_notes: CYP3A4 inhibition in human liver microsomes (testosterone 6β-hydroxylation)
# Assay type: in vitro ADME
# particulars: human, pooled human liver microsomes, pH 7.4, probe testosterone (6β-hydroxylation); read-out: CYP3A4 activity, % of control activity

{"molecular_string": "COc1c(O)cc2c(c1O)[C@@H]1O[C@H](CO)[C@@H](O)[C@H](O)[C@H]1OC2=O", "activity at 100 μM / %": 11}

* * *

# system: CYP2E1 (Homo sapiens, UniProt P05181)

{"molecule": "COc1c(O)cc2c(c1O)[C@@H]1O[C@H](CO)[C@@H](O)[C@H](O)[C@H]1OC2=O [bergenin, Bergenin]", "IC50 / µM": 22.8}

* * *

# system: CYP2E1 (Homo sapiens)
# Construct: CYP2E1 catalyzed reactions (chlorzoxazone 6-hydroxylation) in pooled HLM; from tissue; host or cells: pooled human liver microsomes
# protocol_notes: CYP2E1 inhibition in human liver microsomes (chlorzoxazone 6-hydroxylation)
# Format: in vitro ADME
# particulars: human, pooled human liver microsomes, pH 7.4, probe chlorzoxazone (6-hydroxylation); read-out: CYP2E1 activity, % of control activity

{"molecular_string": "COc1c(O)cc2c(c1O)[C@@H]1O[C@H](CO)[C@@H](O)[C@H](O)[C@H]1OC2=O", "value_unit": "%", "activity at 100 μM": 12.2}
